Measured values drawn from a melting point compilation (Tetko et al.; mined from patent text by program, amines drawn as free bases though some values may be those of a salt) for this set.

Recorded measurements of melting point, one per entry

Query COC(=O)C1CCc2c(oc3cccc(Cl)c23)C1 (stereo not given) yields melting point of 99 to 102 °C

Record "Cc1cccc(Cl)c1NC(=O)/C=C1\SCC(=O)N1c1ccccc1" , field melting point: 213 to 214 °C

Form: compound = "CS(=O)(=O)c1ccnc(-c2nc(=O)c3ccccc3s2)c1" ; melting point = 300 to 301 °C

compound "CCCn1nc(CC)c(C(=O)O)c1Cc1ccc(-c2ccccc2-c2nnn[nH]2)cc1" , melting point observed: 229 °C

Entry "C#CCNC(=O)/C=C\SC(=O)c1ccccc1" , melting point reported as 131 to 134 °C

----------
# key: entry, value: melting point

Would you please look over these solved cases?
>>> value_reported("COc1ccc(N2CCOCC2)cc1NC(=S)c1nc2ccccc2[nH]1")
"236 to 237 °C"
>>> value_reported("CC(=O)OCc1c(C(=O)C(=O)O)c2cc(-c3cccc(C)c3)ccc2n1Cc1ccc(C)cc1")
"89 to 90 °C"
>>> value_reported("CC(=O)n1ncc(=O)[nH]c1=O")
"150 °C"
>>> value_reported("CCCn1c(C)c(C(C)=O)c(N)c1-c1ccccc1")
"113 to 115 °C"

The recorded melting point for entry "CNC(=C[N+](=O)[O-])NCCCOc1cccc(CCN(C)C)c1" equals 93 to 94 °C

----------
Parameter: melting point. Scope: all listed entries.

>>> value_reported("CCCCCCc1ccc(-c2ccc(-c3ccc(-c4ccc(-c5ccc(-c6ccc(CCCCCC)o6)o5)o4)o3)o2)o1")
"261 °C"
>>> value_reported("CCOC(=O)CCc1cc(CCC(N)=O)cc(Cc2ccc(F)cc2)c1")
"69 to 70 °C"
>>> value_reported("COc1cccc(-c2ccccc2C(=O)Nc2ccc(Cl)cc2)c1")
"123 to 124 °C"
>>> value_reported("O=C1OCCC1NC(c1ccccc1)(c1ccccc1)c1ccccc1 (centres undefined)")
"164 to 166 °C"
>>> value_reported("CNC1C(C)CN(c2c(F)c(N)c3c(=O)c(C(=O)O)cn(C4CC4)c3c2OC)CC1C (centres undefined)")
"224 to 226 °C"
>>> value_reported("O=C(O)C1=C(c2cc(-c3ccccc3)[nH]n2)CCCC1")
"207 to 209 °C"

Query O=c1[nH]c2ccc(C(O)CN3CCC(O)(c4ccccc4)CC3)cc2o1 (centres undefined) yields melting point of 175 to 177 °C

Reported melting point ( "NC(=O)c1ccnc(NC(=O)N2CCC3(CCc4cc(F)ccc4O3)CC2)c1" ) = 265 to 267 °C

Quick note, melting point for "N#Cc1cccc(OC(=O)C(=O)Oc2cccc(C#N)c2)c1" landed at 187 to 190 °C

----------
endpoint.name: melting point

Below, each entry is followed by its recorded melting point result.
>>> value_reported("O=c1[nH]c2ncc(-c3cccnc3)nc2n1CC1CCCCC1")
"205 °C"
>>> value_reported("CCCc1cc(Cl)c2oc(Cc3ccc(OCC(=O)O)cc3)c(C)c2c1O")
"179 to 180 °C"
>>> value_reported("C[C@@H](C(=O)O)N(C)C(=O)c1cc(C(F)(F)F)cc([N+](=O)[O-])c1N")
"136 °C"

For this molecule ( "CCCCCCCCCCCCCCOc1cccc(CO)c1" ), measured melting point is 49 to 50 °C

Lab book: melting point of "O=C(O)c1cncc(O)c1C(=O)c1cc(Cl)ccc1F" noted as 262 to 264 °C

Short answer for "O=C(OCCN1CCCC1)c1c[nH]c2ccccc12" : melting point was 145 to 146 °C

// melting point lookup, molecule = "CC(C)(C)OC(=O)N[C@@H](CSc1ccccc1N)C(=O)O" , result: 109 to 111 °C

The reported value for Nc1nccc(-c2ccccc2OCC(O)CN2CCN(c3ccc(Cl)cc3)CC2)n1 (stereo unspecified) in terms of melting point is 159 to 160 °C

Sure, the documented melting point for "NCCc1cc(-c2ccccc2)n(-c2ccc(S(N)(=O)=O)cc2)n1" is 189 to 192 °C

Lab note: measured melting point of "Cc1cc(SCC#Cc2ccccc2)ccc1OCC(=O)O" was 90 to 92 °C

So for "OCCOc1ccc(I)cc1" , the logged melting point turned out to be 76 to 77 °C

Lab book: melting point of "CS(=O)(=O)Oc1ccc(O)cc1" noted as 82 to 84 °C

melting point measured on "Cc1cc(Cl)c(N2C(=O)Cc3cc(C)ccc32)c(Cl)c1" = 153 to 154 °C

# melting point (molecule: CC(C)(C)CCCOC1CCC2C3C(=O)C=C4CC(O[Si](C)(C)C(C)(C)C)CCC4(C)C3CCC12C (stereo unspecified) ) is 155 to 156 °C

Value of measured melting point for the entry "CCNC(=O)CN(c1c(Cc2c(F)cccc2F)cccc1OC)S(=O)(=O)c1ccc(OC)c(OC)c1" : 180 °C

Recorded result, CC1(c2ccccc2)OC(C=Cc2cccnc2)=CC1=O (stereo unspecified) , melting point: 106 to 108 °C

Lab book: melting point of "O=c1ccc(S(=O)(=O)c2oc3ccc(Cl)cc3c2O)n[nH]1" noted as > 240 °C

What the record says about "C=C[C@H](O)[C@H](Cc1ccccc1)NC(=O)OC(C)(C)C" : melting point is 98 to 100 °C

----------
endpoint.name: melting point

These solved cases illustrate the format of a correct answer.
>>> value_reported("COc1ccc(C(=O)NCCN2CCC(Oc3ccc(Cl)c(Cl)c3)CC2)cc1")
"110 to 112 °C"
>>> value_reported("C=Cn1c(C)c(C)c2cnnc(OCc3ccccc3)c21")
"85 to 86 °C"

Briefly, melting point measured for "CC1CCN(c2cc3nc(C(C)(C)C)sc3cc2NC(=S)Oc2ccccc2)CC1" : 201 to 205 °C

# melting point of "COc1cc(OC)c(N2CCCC2)cc1/C=C/C(=O)c1ccc(S(=O)(=O)Nc2ccccn2)cc1" = 124 to 128 °C

melting point reading for "O=[N+]([O-])c1ccc(Oc2ccccc2-c2ccccc2Oc2ccc([N+](=O)[O-])cc2)cc1" : 158 °C

----------
Examples of compounds with documented melting point follow.

>>> value_reported("CC(=O)OCc1ccccc1S(N)(=O)=O")
"131 to 133 °C"

--- query ---
Lab note: NNC(=O)c1cc2c(s1)-c1ccccc1OC2c1ccccc1 (stereo unspecified) gave melting point of 238 to 239 °C

----------
endpoint.name: melting point

>>> value_reported("Cc1ccc(-c2ccc(S(C)(=O)=O)cc2)n1-c1ccc(-c2ccoc2)cc1")
"200 to 202 °C"

melting point for O=C1CCC(c2ccccc2)(C2CCNC2)CC1 (stereo not given) is 75 to 79 °C

Entry under test: "O=C(SC[C@H](SC(=O)c1ccccc1)C(=O)N[C@@H](CO)C(=O)O)c1ccccc1" . Its melting point was 147 to 150 °C

CC(Nc1ncnc2[nH]cnc12)c1oc2cccc(F)c2c(=O)c1-c1cccc(F)c1 (stereo not given) has a reported melting point of 195 to 198 °C

Short answer for "O=C(OCc1ccccc1)N1CCc2c(sc3nc(CCl)c(Cl)c(-c4ccc(OCc5ccccc5)cc4)c23)C1" : melting point was 144 to 145 °C

Reported melting point for CN1CCc2c(Cl)csc2C(c2ccccc2)C1 (stereo not given) was 67 °C

melting point measured on "O=C(O)c1cc([N+](=O)[O-])cc2ccccc12" = 255 to 257 °C

"Cc1ccc(-c2nc(CCl)c(C)o2)cc1" yielded melting point of 91 to 93 °C

Consider "CC(=O)Nc1c(C#N)cnn1-c1c(Cl)cc(Cl)cc1Cl" . Its measured melting point is 163 to 164 °C

# melting point (molecule: "Cc1nc2c(cc1C(=O)O)CCCC2" ) is 196 to 197 °C

# molecule "NS(=O)(=O)c1ccc(-n2nc(C(F)(F)F)cc2-c2ccc(OS(=O)(=O)C(F)(F)F)c(Cl)c2)cn1" ; its melting point = 118 to 120 °C

// recorded melting point for "Cc1c(C(=O)c2ccccc2)c(=O)n(C)c(=O)n1C" : 132 to 134 °C

Field melting point (entry Cc1c(C)c2c(c(C)c1O)CCC(C)(COc1ccc(NC(=S)NC(c3ccccc3)c3ccccc3)cc1)O2 (stereo not given) ) reads 146 to 148 °C

----------
endpoint.name: melting point

>>> value_reported("O=C(O)Cc1cc(=O)oc2cc(O)ccc12")
"210 °C"

According to the records, this compound "C=CCNC(=O)c1ccc([N+](=O)[O-])cc1Br" displays melting point of 98 to 100 °C

The recorded melting point for entry O=C1OCCn2c1cc(=O)c(O)c2C(O)c1ccc(F)cc1 (stereo not given) equals 221 to 225 °C

In plain terms, CC1(C)C(C=C(Cl)Cl)C1C(=O)OC(c1cccc(Oc2ccc(F)cc2)n1)C(F)(F)F (stereo not given) has a documented melting point of 69 to 72 °C

Measured melting point, COc1ccc(C2CCc3ccccc3C2=O)cc1 (stereo not given) : 107 to 108 °C

Entry "Nc1ccc(/C=C/c2c(F)cccc2F)cc1" , melting point reported as 74 to 75 °C

Form field melting point, entry COc1cc(F)ccc1-c1ccc(S(=O)(=O)N2c3ccccc3CC2C(=O)NCCOc2ccc(C(=O)O)c(F)c2)cc1 (stereo not given) : 88 to 95 °C

The compound listed as CCOC(=O)CCC(NC(=O)c1ccc(NC2CCc3cc4nc(C)n(COC(=O)C(C)(C)C)c(=O)c4cc32)cc1)C(=O)OCC (mixture of isomers) shows melting point equal to 156 °C

melting point reported for this compound "COc1ccc(CSc2cccc3c2C(=O)c2cccc(SCc4ccc(OC)cc4)c2C3=O)cc1" : 297 to 299 °C
